system: NCI-H460 lung; assay: NCI tumour cell line growth inhibition, 48 h
value type: TGI

Nc1ncnc2c1ncn2[C@@H]1C[C@H]1CO :: > 100 µM
CC(C)(C)[Si](C)(C)OCC1OC(n2cc(F)c(=O)[nH]c2=O)CC1O[Si](C)(C)C(C)(C)C (stereo not drawn) :: 15.7 µM
CSC(=S)N/N=C/c1ccccc1 :: > 100 µM
COc1cc(CNc2nc3ccccc3nc2-c2cccs2)cc(OC)c1OC :: 37.5 µM
CC(=O)c1ccc(N2CCN(c3c(O)c4c(c(O)c3Cl)C(=O)C=CC4=O)CC2)cc1 :: 41 µM

Q. Name the recorded TGI for COc1ccc2c(CC(=O)O)cc(=O)oc2c1 .
A. > 100 µM

Q. Name the recorded TGI for O=C(Nc1ncc(Cc2ccccc2)s1)c1ccc2c(c1)OCCO2 .
A. > 34.5 µM

Q. Name the recorded TGI for O=C1ON(Cc2ccccc2)C(c2ccccc2)N1c1ccccc1 (stereo not drawn) .
A. > 100 µM

Q. Name the recorded TGI for Cc1nc2c(O)cccc2c(=O)[nH]1 .
A. > 1000 µM
